- System: human breast cancer cells (MCF-7)
- protocol_summary: MTT cell viability assay, MCF-7
- Type: cell-based
- experimental_setup: MCF7, 48 h, MCF-7 cells, read-out: half inhibitory concentration (IC50), MCF-7
Consider the following compounds; for each one, report its IC50.
Return type: number; implicit unit µM.

Measured IC50, CCCCCCCCCCC(=O)Oc1ccc2c(=O)c(-c3ccc(OC)cc3)coc2c1 : 85

Measured IC50, COc1ccc(-c2coc3cc(OC(=O)CCCCCCC[P+](c4ccccc4)(c4ccccc4)c4ccccc4)ccc3c2=O)cc1 : 42.6

Measured IC50, COc1ccc(-c2coc3cc(OC(=O)CCCCCCCCCCC[P+](c4ccccc4)(c4ccccc4)c4ccccc4)ccc3c2=O)cc1 : 46.6

Measured IC50, COc1ccc(-c2coc3cc(OC(=O)CCCCC[P+](c4ccccc4)(c4ccccc4)c4ccccc4)ccc3c2=O)cc1 : 72.8

Measured IC50, COc1cccc2c1C(=O)c1c(O)c3c(c(O)c1C2=O)C[C@@](O)(C(=O)CO)C[C@@H]3O[C@H]1C[C@H](N)[C@H](O)[C@H](C)O1 [DOX, doxorubicin, reference compound] : 13.2

Measured IC50, COc1ccc(-c2coc3cc(OC(=O)CCCCCCCC[P+](c4ccccc4)(c4ccccc4)c4ccccc4)ccc3c2=O)cc1 : 56.8

Measured IC50, COc1ccc(-c2coc3cc(OC(=O)CCCCCCCCC[P+](c4ccccc4)(c4ccccc4)c4ccccc4)ccc3c2=O)cc1 : 85.5
